test system: human colon cancer cell line HCT-116; assay: Cytotoxicity, MTS assay; conditions: Homo sapiens, HCT-116, 72 h
metric-name: log10(IC50) (log10 of the value in nM)

{"columns": ["compound", "log10(IC50)"],
 "data": [
  ["CN1C(=O)[C@]23CC4=CC=C[C@H](O)[C@H]4N2C(=O)[C@@]1(CO)SS3", 3.09],
  ["CN1C(=O)C2(S)CC3=CC=CC(O)C3N2C(=O)C1(S)CO (stereo not drawn)", 2.63],
  ["CC(=O)OC1C=CC=C2CC34SSC(CO)(C(=O)N3C21)N(C)C4=O (stereo not drawn)", 2.95],
  ["O=c1[nH]cc(F)c(=O)[nH]1 [5-Fluorouracil, reference compound]", 3.31],
  ["C=c1c(=O)n2c(cc3ccccc32)c(=O)n1C", 4.01]
]}

These measurements were taken from paper PMC4245550.
